Assign Population Pyknosed Nuclei (%) to each entry below.
Tested on: HEK-293T
Experimental Details: Multiplex assay against HEK293T
Type: toxicity, cell-based
Protocol Conditions: human, 48 h, 1 µM, compound concentration 1 uM, replicate 2
Express it in %; write the number only.

Prompt: Which Population Pyknosed Nuclei (%) value is on record for CC[C@H]1OC(=O)[C@H](C)[C@@H](O[C@H]2C[C@@](C)(OC)[C@@H](O)[C@H](C)O2)[C@H](C)[C@@H](O[C@@H]2O[C@H](C)C[C@H](N(C)C)[C@H]2O)[C@@]2(C)CC(C)=C(O2)[C@H](C)[C@@H](O)[C@]1(C)O ?
Completion: 9

Prompt: Which Population Pyknosed Nuclei (%) value is on record for Cc1ccc(F)cc1C(=O)Nc1ccc(C(=O)N2Cc3cccn3Cc3ccccc32)c(Cl)c1 [LIXIVAPTAN] ?
Completion: 7

Prompt: Which Population Pyknosed Nuclei (%) value is on record for O=C1COc2nccc(-c3ccccc3F)c2CN1Cc1cc(C(F)(F)F)cc(C(F)(F)F)c1 ?
Completion: 8

Prompt: Which Population Pyknosed Nuclei (%) value is on record for CCCn1c(=O)c2[nH]c(C3CCCC3)nc2n(CCC)c1=O ?
Completion: 5

Prompt: Which Population Pyknosed Nuclei (%) value is on record for C[C@H]1[C@H]2CC[C@H]3[C@@H]4CC=C5C[C@@H](N(C)C)CC[C@]5(C)[C@H]4CC[C@]23CN1C [CONESSINE] ?
Completion: 5
